System: Staphylococcus aureus
Experiment: Antibacterial activity against Staphylococcus aureus MTCC 96 incubated for 14 to 16 hrs by micro broth dilution method
Assay type: functional
Settings: time 14-16 hrs
RESULT TYPE: MIC

Use these answered entries as a reference point.
>  <COMPOUND>
CN(C)[C@@H]1C(O)=C(C(N)=O)C(=O)[C@@]2(O)C(O)=C3C(=O)c4c(O)cccc4[C@@](C)(O)[C@H]3C[C@@H]12

>  <SYSTEM UNDER TEST>
Staphylococcus aureus

>  <MIC>
4.2 µM

$$$$
>  <COMPOUND>
CCCCCCCCCCCCSCc1cc(CSCCCCCCCCCCCC)cc(C[n+]2ccccc2)c1

>  <SYSTEM UNDER TEST>
Staphylococcus aureus

>  <MIC>
> 100 µM

$$$$
>  <COMPOUND>
CC[S+](C)Cc1cc(C[n+]2ccccc2)cc(C[S+](C)CC)c1.F[B-](F)(F)F.F[B-](F)(F)F.F[B-](F)(F)F (stereo not given)

>  <SYSTEM UNDER TEST>
Staphylococcus aureus

>  <MIC>
> 100 µM

$$$$
>  <COMPOUND>
CCCCCCCCCCCCSCc1cc(CN=[N+]=[N-])cc(CSCCCCCCCCCCCC)c1

>  <SYSTEM UNDER TEST>
Staphylococcus aureus

>  <MIC>
> 100 µM

$$$$

Entry CCCCCCCCCCCCSCc1cc(CSCCCCCCCCCCCC)cc(Cn2cc(CS(=O)(=O)O)nn2)c1 ; MIC = > 100 µM
